biological target: rat PTP1 (Rattus norvegicus); construct: a C-terminal truncation of rat PTP1 (amino acid residues 1-322); GST (N, cleaved yes); made in house; host or cells: E. coli strain TG-1 (pGEX-2T); assay: PTP1 assay, pNPP hydrolysis (rate of change in A405); type: biochemical; settings: inhibition of pNPP-hydrolysis; compound concentration 1 μM; read-out: % Inhibition
Sequence (P20417 1-322): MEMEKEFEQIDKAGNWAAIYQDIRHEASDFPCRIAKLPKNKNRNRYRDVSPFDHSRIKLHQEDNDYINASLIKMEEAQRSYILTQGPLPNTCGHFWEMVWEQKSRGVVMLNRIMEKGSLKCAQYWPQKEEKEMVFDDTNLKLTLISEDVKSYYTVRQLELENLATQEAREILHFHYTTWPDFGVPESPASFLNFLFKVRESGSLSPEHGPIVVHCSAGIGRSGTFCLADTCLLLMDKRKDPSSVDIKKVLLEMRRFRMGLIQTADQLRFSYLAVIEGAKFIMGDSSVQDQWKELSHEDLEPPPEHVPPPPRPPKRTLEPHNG
This listing pairs compounds with measured inhibition at 1 µM.
Just the number please, in %, no unit attached.

1) CC(C)(C)OC(=O)N[C@@H](Cc1ccccc1)C(=O)N[C@H](CO)Cc1ccc(OCC(=O)O)c(C(=O)O)c1 : 5
2) CC(C)(C)OC(=O)N[C@@H](Cc1ccccc1)C(=O)N[C@@H](Cc1ccc(OCC(=O)O)c(C(=O)O)c1)C(=O)NCCCc1ccccc1 : 39
3) O=C(O)COc1ccc(C[C@H](NC(=O)c2ccc(Cl)cc2)C(=O)NCCCCc2ccccc2)cc1C(=O)O : 37
4) O=C(O)COc1ccc(C[C@H](NC(=O)c2ccoc2)C(=O)NCCCCc2ccc(Cl)cc2)cc1C(=O)O : 30
5) CC(C)(C)OC(=O)N[C@@H](Cc1ccccc1)C(=O)N[C@@H](Cc1ccc(OCC(=O)O)c(C(=O)O)c1)C(=O)NCCCO : 24

Query `CC(C)OCCCNC(=O)[C@H](Cc1ccc(OCC(=O)O)c(C(=O)O)c1)NC(=O)[C@H](Cc1ccccc1)NC(=O)OC(C)(C)C` yields inhibition at 1 µM of 38

Query `O=C(O)COc1ccc(C[C@H](NC(=O)c2ccc(Cl)cc2)C(=O)NCCCCc2ccc(Cl)cc2)cc1C(=O)O` yields inhibition at 1 µM of 27
